B1: library; a variant is named by its letters at N, in order (parent)
chain: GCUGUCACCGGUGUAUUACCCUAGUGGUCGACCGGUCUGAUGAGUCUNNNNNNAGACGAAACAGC

- Variants of: B1
- protocol: normalized RNA/DNA level with ligand (relative to sTRSVctl = 100) (log10 (% of sTRSVctl)); ligand: hypoxanthine (xanthine aptamer); higher = less ribozyme self-cleavage, higher mRNA level
- conditionSet: ligand concentration (+) RNA-Seq: 5 mM, HEK293T, reporter: mCherry (pCS4076), ligand present: yes
propertyMeasured: normalized RNA/DNA level with ligand (log10)

INSERT INTO assay_data (alteration, observedvalue) VALUES
  ('UGUUAU', 1.89),
  ('GCUUCC', 1.96),
  ('UUUUUC', 2.02),
  ('AUCUAC', 1.9),
  ('GGCCCC', 1.95),
  ('CAUCCA', 1.97),
  ('UAAGUC', 1.93),
  ('GUUCAG', 1.82),
  ('GGAGAG', 1.81),
  ('AUACAA', 1.9),
  ('GUGUCA', 1.94),
  ('CGCGAA', 1.87),
  ('AGACAA', 1.89),
  ('CACAAC', 1.93),
  ('UGUCAU', 1.94),
  ('GUCCUC', 1.9),
  ('UCUCGC', 1.99),
  ('ACAGAC', 1.92),
  ('UACCCG', 1.93),
  ('GCAGUA', 1.95),
  ('GCCUCA', 1.98),
  ('GUCAGG', 1.86),
  ('CCUAAG', 1.91),
  ('GCAUAU', 1.93),
  ('CGGGAA', 1.85),
  ('ACGACC', 1.97),
  ('UUCGCU', 1.98),
  ('AUUUUC', 1.97),
  ('GCGGUU', 1.92),
  ('GUAGGA', 1.89),
  ('GAAAAC', 1.87),
  ('GUCUUA', 1.93),
  ('UAGAGG', 1.75);
